Test system: SF-295 CNS
Assay summary: NCI tumour cell line growth inhibition, 48 h
Quick rule for you: TGI at 30 µM or higher means T, lower means F.

{"Compound": "Cc1cccc(/C=N/NC(=S)N2CCCCCC2)n1", "Answer label": "T"}
{"Compound": "Nc1ccc(C(=O)c2ccc(N)c(Br)c2)cc1Br", "Answer label": "F"}
{"Compound": "Cc1cc(O)c(C(=O)CC2(O)C(=O)Nc3c(Cl)cc(Cl)cc32)c(=O)o1 (configuration not stated)", "Answer label": "T"}
{"Compound": "Fc1ccc(C2NC(=S)NC3=C2CCOc2c3ccc3ccccc23)cc1 (configuration not stated)", "Answer label": "T"}
{"Compound": "CC(C)=CC(C)C(C(O)CCC1(c2ccoc2)OCCO1)S(=O)(=O)c1ccccc1 (configuration not stated)", "Answer label": "T"}
{"Compound": "O=C(Nc1ccc(-n2cc(-c3ccncc3)c(-c3ccc(Cl)c(O)c3)n2)cc1)Nc1cc(C(F)(F)F)cc(C(F)(F)F)c1", "Answer label": "F"}
{"Compound": "C=C(Cl)COC(=O)Nc1cccc(Cl)c1", "Answer label": "T"}
{"Compound": "CCOc1cc2c(cnc3c4cc(OC)c(OC)cc4ccc23)cc1OC", "Answer label": "T"}
{"Compound": "OCc1c2c(cc3c1CC1(C3)Cc3cc4c(c(CO)c3C1)CCC4)CCC2", "Answer label": "F"}
{"Compound": "CN(C)c1ccc(/C=N/n2c(-c3ccccc3)nc3ccccc3c2=O)cc1", "Answer label": "T"}
{"Compound": "CC1(C)OC[C@@H]([C@@]2(CO[Si](C)(C)C(C)(C)C)CC=CC(=O)O2)O1", "Answer label": "T"}
